- Experiment Description: Therapeutic index, ratio of CC50 for human MT4 cells to EC50 for HIV1 3B
- Assay type: cell-based
- Measurement Conditions: read-out: Ratio CC50/EC50
Endpoint: selectivity ratio
One number for each entry.

Give the reported value of selectivity ratio for this record: O=C1C(=O)c2cc(-c3cc(O)c(O)c(O)c3)ccc2C(Oc2c(O)cc(-c3ccc4cc(O)c(O)c(O)c4c3)cc2O)=C1O
19

* * *

- Experiment Description: Cytotoxicity gainst human HeLaP4 cells after 3 days by MTT assay
- Assay type: cell-based
Endpoint: CC50 at 72 h (µM)
Numbers only, in µM.

Smiles Str | Endpoint Unit | CC50 at 72 h
O=C1C(=O)c2cc(-c3cc(O)c(O)c(O)c3)ccc2C(Oc2c(O)cc(-c3ccc4cc(O)c(O)c(O)c4c3)cc2O)=C1O | µM | 85

From here, focus on the item given below.
Give a short answer stating reported CC50 at 72 h for Oc1ccc(-c2ccc3cc(O)c(O)cc3c2)cc1O .
51

Where do these numbers come from? They come from ChEMBL document CHEMBL1177673.
